The reported measurements were obtained from patent US20260209352A1.

- Measurement target: T1, Human CD3 on Human CD3+ Jurkat cells (human, UniProt P07766 23-207)
- T1 construct: whole, on cells; CD3 complex on cells; also called hCD3
- T1 sequence (P07766 23-207): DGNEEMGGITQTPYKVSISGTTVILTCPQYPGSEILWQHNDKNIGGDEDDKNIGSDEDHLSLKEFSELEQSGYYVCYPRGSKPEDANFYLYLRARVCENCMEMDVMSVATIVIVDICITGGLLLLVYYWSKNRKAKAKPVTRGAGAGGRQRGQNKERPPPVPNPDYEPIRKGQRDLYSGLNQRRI
- Test summary: cell binding hCD3, fold over background
Value kind: Cell Binding hCD3 (FOB)
Numbers only; they are read as FOB.

1. ADI-46378 (antibody, V domains shown, also called Ab40) VH: QVQLVQSGAEVKKPGASVKVSCKASGFNIKDYYMHWVRQAPGQRLEWIGWIDLENANTVYDAKFQGRVTITRDTSASAAYMELSSLRSEDTAVYYCARDAYGRYFYDVWGQGTLVTVSS VL: DIVMTQSPDSLAVSLGERATINCKSSQSLLNARTRKNYLAWYQQKPGRPPKLLIYWASTRESGVPDRFSGSGSGTDFTLTISSLQAEDVAVYYCVQSYFRRTFGGGTKVEIK	22
2. ADI-45969 (antibody, V domains shown, also called Ab5) VH: QVQLVQSGAEVKKPGASVKVSCKASGFNIKDYYMHWVRQAPGQRLEWIGWIDLENANTVYDAKFQGRVTITRDTSASTAYMELGSLRSEDTAVYYCARDAYGRYFYDVWGQGTLVTVSS VL: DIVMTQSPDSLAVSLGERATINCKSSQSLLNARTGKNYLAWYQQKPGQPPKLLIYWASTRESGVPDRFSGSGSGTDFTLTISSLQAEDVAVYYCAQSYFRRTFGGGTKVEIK	28

Entry ADI-46372 (antibody, V domains shown, also called Ab36) VH: QVQLVQSGAEVKKPGASVKVSCKASGFNIKDYYMHWVRQAPGQRLEWIGWIDLENANTVYDAKFQGRVTITRDTSAGTAHMELSSLRSEDTAVYYCARDAYGRYFYDVWGQGTPVTVSS VL: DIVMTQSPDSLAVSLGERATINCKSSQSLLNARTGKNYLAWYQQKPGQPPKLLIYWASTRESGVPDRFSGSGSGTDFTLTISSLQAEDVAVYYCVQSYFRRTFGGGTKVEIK needs its Cell Binding hCD3 (FOB) filled in; supply it.
14
